Exercise: state measured pIC50 for each of the compounds provided.
Protein target, amino acids: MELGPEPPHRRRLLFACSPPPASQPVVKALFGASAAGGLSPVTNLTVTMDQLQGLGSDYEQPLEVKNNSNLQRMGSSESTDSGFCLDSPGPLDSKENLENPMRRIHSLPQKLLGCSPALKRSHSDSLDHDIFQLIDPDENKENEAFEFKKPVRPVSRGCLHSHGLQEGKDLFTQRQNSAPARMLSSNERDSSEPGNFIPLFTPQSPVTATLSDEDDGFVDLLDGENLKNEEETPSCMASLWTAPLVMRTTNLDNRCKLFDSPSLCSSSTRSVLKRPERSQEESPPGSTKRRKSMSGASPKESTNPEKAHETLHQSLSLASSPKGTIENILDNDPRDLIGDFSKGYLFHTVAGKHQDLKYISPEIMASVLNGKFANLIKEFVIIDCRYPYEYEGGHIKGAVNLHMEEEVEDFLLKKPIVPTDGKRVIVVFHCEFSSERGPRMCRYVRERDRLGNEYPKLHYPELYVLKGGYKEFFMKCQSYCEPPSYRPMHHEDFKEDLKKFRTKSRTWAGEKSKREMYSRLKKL
The scale used: pIC50 is minus the common logarithm of the concentration in molar units.

Task item: I have this compound here, CO[C@H]1O[C@H](Cn2cc(CO[C@@H](C)[C@H](NC(=O)OC(C)(C)C)C(=O)O)nn2)[C@@H](OCc2ccccc2)[C@H](OCc2ccccc2)[C@@H]1OCc1ccccc1 , and I need its recorded pIC50.
Reply: 4.29

Task item: Now this one: CC(C)(C)OC(=O)N[C@@H](COCc1cn([C@@H]2O[C@H](COCc3ccccc3)[C@@H](OCc3ccccc3)[C@H](OCc3ccccc3)[C@H]2OCc2ccccc2)nn1)C(=O)O
Reply: 4.61

Task item: Consider next the compound CO[C@H]1O[C@H](Cn2cc(CO[C@@H](C)[C@H](NC(=O)OC(C)(C)C)C(=O)O)nn2)[C@@H](OCc2ccccc2)[C@H](OCc2ccccc2)[C@H]1OCc1ccccc1 in the same way.
Reply: 3.93

###

# MEASURED ON: Tyrosine-protein phosphatase non-receptor type 1 (Homo sapiens, UniProt P18031)
# Sequence (P18031 whole entry, the tested form may be a part): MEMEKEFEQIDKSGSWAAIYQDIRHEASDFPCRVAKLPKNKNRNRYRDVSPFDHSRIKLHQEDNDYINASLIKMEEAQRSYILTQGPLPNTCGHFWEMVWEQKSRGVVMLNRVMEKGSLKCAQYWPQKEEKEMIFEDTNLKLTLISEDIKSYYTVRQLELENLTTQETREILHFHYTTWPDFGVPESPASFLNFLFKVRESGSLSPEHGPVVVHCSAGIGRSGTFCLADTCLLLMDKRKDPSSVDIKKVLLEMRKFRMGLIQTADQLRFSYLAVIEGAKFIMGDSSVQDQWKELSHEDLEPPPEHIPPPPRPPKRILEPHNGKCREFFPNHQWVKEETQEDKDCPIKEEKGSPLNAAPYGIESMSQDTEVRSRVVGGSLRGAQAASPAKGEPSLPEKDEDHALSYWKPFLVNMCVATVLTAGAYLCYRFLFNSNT
# ASSAY REMARKS: Inhibition of human recombinant […] catalytic domain using pNPP substrate
MEASUREMENT NAME: pIC50
A value of pIC50 is the negative decimal logarithm of a concentration given in moles per litre.

Task item: Returns the measured pIC50 for the input compound. Input: C[C@H](OCc1cn([C@@H]2O[C@H](COCc3ccccc3)[C@@H](OCc3ccccc3)[C@H](OCc3ccccc3)[C@H]2OCc2ccccc2)nn1)[C@H](NC(=O)OC(C)(C)C)C(=O)O
Reply: 5.15

Task item: CO[C@H]1O[C@H](Cn2cc(CO[C@@H](C)[C@H](NC(=O)OC(C)(C)C)C(=O)O)nn2)[C@@H](OCc2ccccc2)[C@H](OCc2ccccc2)[C@@H]1OCc1ccccc1 , same question.
Reply: 4.59

Task item: Can you handle CC(C)(C)OC(=O)N[C@@H](COCc1cn([C@@H]2O[C@H](COCc3ccccc3)[C@@H](OCc3ccccc3)[C@H](OCc3ccccc3)[C@H]2OCc2ccccc2)nn1)C(=O)O next?
Reply: 5.23

Task item: Try this compound too: CO[C@H]1O[C@H](Cn2cc(COC[C@H](NC(=O)OC(C)(C)C)C(=O)O)nn2)[C@@H](OCc2ccccc2)[C@H](OCc2ccccc2)[C@@H]1OCc1ccccc1
Reply: 4.73

Task item: And CO[C@H]1O[C@H](Cn2cc(CO[C@@H](C)[C@H](NC(=O)OC(C)(C)C)C(=O)O)nn2)[C@@H](OCc2ccccc2)[C@H](OCc2ccccc2)[C@H]1OCc1ccccc1 ?
Reply: 4.65

Task item: What about this compound? CO[C@H]1O[C@H](Cn2cc(COC[C@H](NC(=O)OC(C)(C)C)C(=O)O)nn2)[C@@H](OCc2ccccc2)[C@H](OCc2ccccc2)[C@H]1OCc1ccccc1
Reply: 4.17

Task item: And what about the compound CO[C@H]1O[C@H](Cn2cc(COC[C@H](NC(=O)OC(C)(C)C)C(=O)O)nn2)[C@H](OCc2ccccc2)[C@H](OCc2ccccc2)[C@H]1OCc1ccccc1 ?
Reply: 4.68

Task item: Param item: CO[C@H]1O[C@H](Cn2cc(CO[C@@H](C)[C@H](NC(=O)OC(C)(C)C)C(=O)O)nn2)[C@H](OCc2ccccc2)[C@H](OCc2ccccc2)[C@H]1OCc1ccccc1
Reply: 4.82

###

# MEASURED ON: Tyrosine-protein phosphatase non-receptor type 1 (Homo sapiens)
# ASSAY REMARKS: Competitive inhibition of human recombinant […] catalytic domain using pNPP substrate at 30 degC and pH 6.5 by Eadie-Hofstee plot
MEASUREMENT NAME: Ki
Put down the number, then write its unit next to it.

Task item: Query the reported Ki for Tyrosine-protein phosphatase non-receptor type 1 (Homo sapiens); item: CC(C)(C)OC(=O)N[C@@H](COCc1cn([C@@H]2O[C@H](COCc3ccccc3)[C@@H](OCc3ccccc3)[C@H](OCc3ccccc3)[C@H]2OCc2ccccc2)nn1)C(=O)O
Reply: 3.9 µM

###

# MEASURED ON: M-phase inducer phosphatase 2 (Homo sapiens)
# Sequence (P30305 whole entry): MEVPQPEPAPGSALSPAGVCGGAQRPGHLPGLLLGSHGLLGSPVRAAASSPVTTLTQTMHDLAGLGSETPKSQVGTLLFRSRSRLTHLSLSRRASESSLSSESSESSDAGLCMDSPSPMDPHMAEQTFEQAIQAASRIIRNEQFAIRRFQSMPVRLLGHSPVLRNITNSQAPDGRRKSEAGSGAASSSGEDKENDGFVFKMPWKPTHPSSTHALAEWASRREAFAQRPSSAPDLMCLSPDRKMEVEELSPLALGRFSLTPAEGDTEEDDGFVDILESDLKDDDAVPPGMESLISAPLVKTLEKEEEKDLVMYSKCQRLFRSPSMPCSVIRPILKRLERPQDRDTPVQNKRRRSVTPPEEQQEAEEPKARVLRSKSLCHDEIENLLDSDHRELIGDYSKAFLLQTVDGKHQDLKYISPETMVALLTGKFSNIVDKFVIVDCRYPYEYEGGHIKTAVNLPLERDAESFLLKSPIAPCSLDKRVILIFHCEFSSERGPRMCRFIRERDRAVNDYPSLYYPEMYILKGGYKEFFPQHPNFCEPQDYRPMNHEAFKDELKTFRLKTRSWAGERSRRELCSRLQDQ
MEASUREMENT NAME: IC50 (µM)
Enter your answer as a number in µM; do not include the unit.

Task item: Give the reported IC50 for CO[C@H]1O[C@H](Cn2cc(CO[C@@H](C)[C@H](NC(=O)OC(C)(C)C)C(=O)O)nn2)[C@@H](OCc2ccccc2)[C@H](OCc2ccccc2)[C@H]1OCc1ccccc1 (system: M-phase inducer phosphatase 2 (Homo sapiens)).
Reply: 27.1

###

# System: HeLa
# ASSAY REMARKS: Cytotoxicity against human HeLa cells after 72 hrs by MTT assay
# Type: functional, cell-based
Exercise: for every item that follows, state its recorded IC50.
Write it as a number; the unit µM goes unstated.

Task item: Give recorded IC50 with HeLa for the following molecule: CC(C)(C)OC(=O)N[C@@H](COCc1cn([C@@H]2O[C@H](COCc3ccccc3)[C@@H](OCc3ccccc3)[C@H](OCc3ccccc3)[C@H]2OCc2ccccc2)nn1)C(=O)O
Reply: 25.3

Task item: Also CO[C@H]1O[C@H](Cn2cc(CO[C@@H](C)[C@H](NC(=O)OC(C)(C)C)C(=O)O)nn2)[C@H](OCc2ccccc2)[C@H](OCc2ccccc2)[C@H]1OCc1ccccc1 , if possible.
Reply: 56.4

Task item: Next molecule: CO[C@H]1O[C@H](Cn2cc(CO[C@@H](C)[C@H](NC(=O)OC(C)(C)C)C(=O)O)nn2)[C@@H](OCc2ccccc2)[C@H](OCc2ccccc2)[C@@H]1OCc1ccccc1
Reply: 53.7

###

# MEASURED ON: Tyrosine-protein phosphatase non-receptor type 2 (Homo sapiens, UniProt P17706)
# Sequence (P17706 whole entry): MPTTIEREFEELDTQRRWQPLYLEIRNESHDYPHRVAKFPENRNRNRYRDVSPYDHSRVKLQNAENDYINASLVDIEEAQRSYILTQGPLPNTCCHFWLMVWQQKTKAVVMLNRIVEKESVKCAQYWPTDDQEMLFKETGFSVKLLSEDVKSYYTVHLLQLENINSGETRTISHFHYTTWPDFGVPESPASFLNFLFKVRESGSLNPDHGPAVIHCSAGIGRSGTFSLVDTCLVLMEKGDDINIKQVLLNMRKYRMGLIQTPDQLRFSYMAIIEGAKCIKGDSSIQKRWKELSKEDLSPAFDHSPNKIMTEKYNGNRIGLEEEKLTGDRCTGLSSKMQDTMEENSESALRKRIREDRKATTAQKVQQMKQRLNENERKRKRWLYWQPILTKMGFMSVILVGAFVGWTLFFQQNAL
# ASSAY REMARKS: Inhibition of TCPTP
Give measured IC50 for each item. Keep answers brief.
I only need the number, in µM, no unit after it.

Task item: Data request, read-out IC50, for CO[C@H]1O[C@H](Cn2cc(COC[C@H](NC(=O)OC(C)(C)C)C(=O)O)nn2)[C@H](OCc2ccccc2)[C@H](OCc2ccccc2)[C@H]1OCc1ccccc1
Reply: 54.9

Task item: Try this compound next: CO[C@H]1O[C@H](Cn2cc(CO[C@@H](C)[C@H](NC(=O)OC(C)(C)C)C(=O)O)nn2)[C@@H](OCc2ccccc2)[C@H](OCc2ccccc2)[C@H]1OCc1ccccc1
Reply: 80.7

Task item: Next record, please: CO[C@H]1O[C@H](Cn2cc(CO[C@@H](C)[C@H](NC(=O)OC(C)(C)C)C(=O)O)nn2)[C@@H](OCc2ccccc2)[C@H](OCc2ccccc2)[C@@H]1OCc1ccccc1
Reply: 105

Task item: Same read-out for CO[C@H]1O[C@H](Cn2cc(COC[C@H](NC(=O)OC(C)(C)C)C(=O)O)nn2)[C@@H](OCc2ccccc2)[C@H](OCc2ccccc2)[C@@H]1OCc1ccccc1 ?
Reply: 89.2
